- Tested on: T-47D breast
- Assay Procedure: NCI-60 one-dose screen, 48 h
- Assay Context: 10 µM unless noted
About 83,000 compounds went through this panel and 20% of them were active in at least one assay; those are over-represented in the sample as a whole. The source made the active and inactive calls. How the source made its calls: active means growth percent below 10; inactive means the rest.
Possible outcomes: 1 (active), -1 (inactive)

Smiles Notation	Subject Of Test	Qualitative Label
CN1CCN(c2cnc(C(=O)Nc3cc(F)cc4cccnc34)cn2)CC1	T-47D breast	-1
OC1(c2ccc(Cl)c(C(F)(F)F)c2)CCN(CCCC(c2ccc(F)cc2)c2ccc(F)cc2)CC1	T-47D breast	1
O=C1Nc2c(ccc(Cl)c2Cl)/C1=C/c1ccccn1	T-47D breast	-1
NC(=S)N/N=C(\c1ccc(Cl)cc1)C1CC1	T-47D breast	-1
O=C(/C=C/c1ccc[nH]1)c1ccc(-n2ccc(C(F)(F)F)n2)cc1	T-47D breast	-1
Cc1c2c(cc[n+]1Cc1ccccc1)c1ccc(OCc3ccccc3)cc1n2Cc1ccccc1	T-47D breast	1
